molecular target: human VR1 (Homo sapiens); assay: Acid stimulation assay (acid-induced intracellular calcium change, FDSS 6000); type: cell-based; details: final assay buffer pH5.8, 15 min pre-incubation, read-out: IC50 (nM) Low pH
Recorded measurements of IC50, one per entry
Note: unit nM is implicit; provide only the numeric part.

>  <STRUCTURE STRING>
Cc1cc([C@@H](C)NC(=O)c2cnc3cc(C(F)(F)F)ccc3c2)ccc1NS(C)(=O)=O

>  <EXPERIMENTAL TARGET>
human VR1 (Homo sapiens)

>  <SCALE UNIT>
nM

>  <IC50>
100

$$$$

Could you share which IC50 value was measured for `C[C@@H](NC(=O)c1cnc2cc(C(F)(F)F)ccc2c1)c1cc(F)c(NS(C)(=O)=O)c(F)c1` ?
105

Could you share which IC50 value was measured for `Cc1cc([C@@H](C)NC(=O)c2ccc3cc(C(C)(C)C)ccc3c2)c(F)cc1NS(C)(=O)=O` ?
127

Could you share which IC50 value was measured for `Cc1cc([C@@H](C)NC(=O)c2ccc3cc(F)ccc3c2)ccc1NS(C)(=O)=O` ?
83

Could you share which IC50 value was measured for `Cc1cc([C@@H](C)NC(=O)c2ccc3cc(Br)ccc3n2)ccc1NS(C)(=O)=O` ?
444

Could you share which IC50 value was measured for `Cc1cc([C@@H](C)NC(=O)c2ccc3nc(C(F)(F)F)cc(N4CCC(F)(F)CC4)c3c2)c(F)cc1NS(C)(=O)=O` ?
29

Could you share which IC50 value was measured for `Cc1cc([C@@H](C)NC(=O)c2ccc3nc(C(C)C)ccc3c2)ccc1NS(C)(=O)=O` ?
5

Could you share which IC50 value was measured for `CCOc1ccc2cc(C(=O)N[C@H](C)c3ccc(NS(C)(=O)=O)c(C)c3)ccc2n1` ?
15

* * *

molecular target: human VR1 (Homo sapiens, UniProt Q8NER1); experiment: Acid stimulation assay (acid-induced intracellular calcium change, FDSS 6000); type: cell-based; conditions: final assay buffer pH5.8, 15 min pre-incubation, read-out: IC50 (nM) Low pH
Sequence (Q8NER1 whole entry): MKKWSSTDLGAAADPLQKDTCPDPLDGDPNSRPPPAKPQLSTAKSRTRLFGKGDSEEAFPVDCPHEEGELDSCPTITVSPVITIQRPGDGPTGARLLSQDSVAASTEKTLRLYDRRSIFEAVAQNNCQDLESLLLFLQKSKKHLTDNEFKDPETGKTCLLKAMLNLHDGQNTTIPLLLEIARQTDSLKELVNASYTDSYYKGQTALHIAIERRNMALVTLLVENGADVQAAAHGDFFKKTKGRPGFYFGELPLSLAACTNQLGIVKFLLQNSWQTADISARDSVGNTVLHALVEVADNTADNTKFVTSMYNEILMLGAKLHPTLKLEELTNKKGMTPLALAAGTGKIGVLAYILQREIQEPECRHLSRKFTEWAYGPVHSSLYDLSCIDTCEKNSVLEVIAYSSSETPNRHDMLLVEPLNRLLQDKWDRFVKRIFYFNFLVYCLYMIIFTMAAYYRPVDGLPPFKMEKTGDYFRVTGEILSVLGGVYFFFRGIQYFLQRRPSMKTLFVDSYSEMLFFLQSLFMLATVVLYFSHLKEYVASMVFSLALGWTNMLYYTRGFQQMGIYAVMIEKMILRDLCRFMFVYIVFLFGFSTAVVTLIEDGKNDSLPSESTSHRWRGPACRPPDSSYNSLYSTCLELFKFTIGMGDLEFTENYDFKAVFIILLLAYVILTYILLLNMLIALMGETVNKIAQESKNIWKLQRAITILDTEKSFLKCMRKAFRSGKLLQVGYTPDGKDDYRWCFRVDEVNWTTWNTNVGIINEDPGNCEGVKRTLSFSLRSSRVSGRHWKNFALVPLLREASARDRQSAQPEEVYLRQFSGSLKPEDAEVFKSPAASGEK
Just a reminder that ties go to Not satisfied: only IC50 strictly below 30 nM counts as Satisfied.

>  <COMPOUND>
Cc1cc([C@@H](C)NC(=O)c2ccc3cc(Br)ccc3c2)ccc1NS(C)(=O)=O [Example 17]

>  <EXPERIMENTAL TARGET>
human VR1 (Homo sapiens, UniProt Q8NER1)

>  <CLASS ASSIGNMENT>
Satisfied

$$$$
>  <COMPOUND>
C[C@@H](NC(=O)c1cnc2cc(C(C)(C)C)ccc2c1)c1ccc(NS(C)(=O)=O)cc1 [Example 41]

>  <EXPERIMENTAL TARGET>
human VR1 (Homo sapiens, UniProt Q8NER1)

>  <CLASS ASSIGNMENT>
Satisfied

$$$$
>  <COMPOUND>
Cc1cc([C@@H](C)NC(=O)c2cnc3ccc(C(C)(C)C)cc3c2)ccc1NS(C)(=O)=O [Example 29]

>  <EXPERIMENTAL TARGET>
human VR1 (Homo sapiens, UniProt Q8NER1)

>  <CLASS ASSIGNMENT>
Not satisfied

$$$$

Threshold test, IC50 < 30 nM: Cc1cc([C@@H](C)NC(=O)c2ccc3nc(C(F)(F)F)nc(N4CCOCC4)c3c2)c(F)cc1NS(C)(=O)=O [Example 112]
Not satisfied

Threshold test, IC50 < 30 nM: Cc1cc([C@@H](C)NC(=O)c2ccc3ccccc3c2)ccc1NS(C)(=O)=O [Example 19]
Not satisfied

Threshold test, IC50 < 30 nM: Cc1cc([C@@H](C)NC(=O)c2ccc3nc(C4(C)CC4)ccc3c2)c(F)cc1NS(C)(=O)=O [Example 108]
Satisfied

Threshold test, IC50 < 30 nM: CC(C)c1ccc2cc(C(=O)N[C@H](C)c3cc(F)c(NS(C)(=O)=O)c(F)c3)cnc2c1 [Example 39]
Satisfied

Threshold test, IC50 < 30 nM: C[C@@H](NC(=O)c1ccc2cc(C(C)(C)C)ccc2n1)c1cc(F)c(NS(C)(=O)=O)c(F)c1 [Example 7]
Satisfied
